- measurement.target: Muscarinic acetylcholine receptor M1 (Rattus norvegicus, UniProt P08482)
- Sequence (P08482 whole entry): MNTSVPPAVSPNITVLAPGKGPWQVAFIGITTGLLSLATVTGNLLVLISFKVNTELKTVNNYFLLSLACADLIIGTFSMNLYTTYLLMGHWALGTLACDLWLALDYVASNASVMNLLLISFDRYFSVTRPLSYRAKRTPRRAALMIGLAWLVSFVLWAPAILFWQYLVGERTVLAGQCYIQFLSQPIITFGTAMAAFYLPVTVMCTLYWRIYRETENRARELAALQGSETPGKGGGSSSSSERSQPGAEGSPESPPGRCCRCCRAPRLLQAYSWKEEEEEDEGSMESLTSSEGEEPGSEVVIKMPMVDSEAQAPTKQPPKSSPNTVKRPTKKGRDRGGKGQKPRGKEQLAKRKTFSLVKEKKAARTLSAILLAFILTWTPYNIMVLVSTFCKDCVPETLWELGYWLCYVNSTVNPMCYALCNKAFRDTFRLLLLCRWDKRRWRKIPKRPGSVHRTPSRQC
- assay.protocol: Binding activity against muscarinic acetylcholine receptor M1 in rat brain, using [3H]OXO-M as the radioligand.
- Assay type: tissue-based
pIC50: −log10 of the molar value.
Criterion: pIC50 meeting or surpassing 8. Met: condition met. Not met: condition not met.

# example entries with known answers
- CCCCCCOc1nccnc1[C@@H]1CN2CCC1C2 (some centres not stated): condition not met
- CCCCCCOc1nccnc1[C@H]1CN2CCCC1C2 (some centres not stated): condition met
- CCCCCCOc1nccnc1C1CN2CCC1CC2 (configuration not stated): condition met

Textbook exercise: given the entry CCCCCCOc1nccnc1[C@H]1CN2CCC1C2 (some centres not stated) , state whether its pIC50 is greater than or equal to 8. condition met

Hello, the source for this data is ChEMBL document CHEMBL1128691, in case you need it.
